TESTED_TARGET: dopamine D2 receptor (Homo sapiens)
EXPERIMENT_NOTES: Dopamine D2 receptor binding assay (displacement of [125I]-iodospiperone)
CONDITION_DESCRIPTION: HEK293 membranes, 0.01 nM [125I]-iodospiperone
Counter-ions that a name gives are not always drawn.
OBSERVABLE: Ki

Worked cases, Ki given:
COMPOUND	Ki
CCCN1CC(c2ccc3c(ccn3S(=O)(=O)c3ccc(-c4cnco4)cc3)c2)C1 [compound 6, hydrochloride]	> 1000 nM
O=S(=O)(c1cccc(C(F)(F)F)c1)N1CCc2cc(C3CNC3)ccc21 [compound 30, hydrochloride]	> 1000 nM
CCCN1CC(c2ccc3c(ccn3S(=O)(=O)c3cccc(OC(F)F)c3)c2)C1 [compound 27, hydrochloride]	> 1000 nM
CCCN1CC(c2ccc3c(ccn3S(=O)(=O)c3cccc(C(F)(F)F)c3)c2)C1 [compound 25, hydrochloride]	> 1000 nM
O=S(=O)(c1ccccc1)N1CCc2cc(C3CNC3)ccc21 [compound 7, hydrochloride]	> 10000 nM
O=S(=O)(c1cccnc1)n1cc(C2CNC2)c2ccccc21 [compound 24, hydrochloride]	> 10000 nM

Pending compound:
Provide value of Ki for this record tested with dopamine D2 receptor (Homo sapiens): O=S(=O)(c1ccc(-c2cnco2)cc1)N1CCc2cc(C3CNC3)ccc21 [compound 8]
> 10000 nM

---

pKi: −log10 of the molar value. Counter-ions that a name gives are not always drawn.
Heads up, these molecules all have pKi values measured for α1-adrenergic receptor (Homo sapiens).

Examples with their reported pKi follow.
MOLECULE	RECORDED_VALUE
CCCN1CC(c2ccc3c(ccn3S(=O)(=O)c3cccc(OC(F)F)c3)c2)C1 [compound 27, hydrochloride]	< 6.60
O=S(=O)(c1ccccc1)n1ccc2cc(C3CNC3)ccc21 [compound 2, hydrochloride]	< 6.00
O=S(=O)(c1cccc(OC(F)F)c1)n1ccc2cc(C3CNC3)ccc21 [compound 21, hydrochloride]	< 6.00
O=S(=O)(c1cccc(C(F)(F)F)c1)N1CCc2cc(C3CNC3)ccc21 [compound 30, hydrochloride]	< 6.00

Next:
Name the reported pKi value associated with the molecule CCCN1CC(c2ccc3c(ccn3S(=O)(=O)c3ccc(OC(F)F)cc3)c2)C1 [compound 4, hydrochloride]
< 6.60

---

Each record here notes measured Ki.
TESTED_TARGET: dopamine D2 receptor (Homo sapiens, UniProt P14416)
Construct: expressed in transfected cells
Sequence (P14416 whole entry): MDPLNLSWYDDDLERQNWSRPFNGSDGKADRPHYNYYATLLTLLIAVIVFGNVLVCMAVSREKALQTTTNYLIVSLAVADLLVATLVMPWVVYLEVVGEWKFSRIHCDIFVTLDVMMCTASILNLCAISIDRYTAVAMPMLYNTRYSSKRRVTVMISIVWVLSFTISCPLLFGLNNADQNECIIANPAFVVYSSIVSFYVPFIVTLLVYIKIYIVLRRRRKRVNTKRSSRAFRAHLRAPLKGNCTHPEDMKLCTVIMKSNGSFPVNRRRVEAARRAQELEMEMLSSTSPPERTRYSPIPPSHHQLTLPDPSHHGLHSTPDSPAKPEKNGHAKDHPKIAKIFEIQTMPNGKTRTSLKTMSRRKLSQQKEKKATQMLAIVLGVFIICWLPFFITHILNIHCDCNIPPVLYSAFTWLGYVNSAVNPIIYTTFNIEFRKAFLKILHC
EXPERIMENT_NOTES: Dopamine D2 receptor binding assay (displacement of [125I]-iodospiperone)
CONDITION_DESCRIPTION: HEK293 membranes, 0.01 nM [125I]-iodospiperone
Counter-ions that a name gives are not always drawn.

These solved cases illustrate the format of a correct answer.
COMPOUND	TESTED_TARGET	OBSERVABLE	RECORDED_VALUE
CCN1CC(c2ccc3c(ccn3S(=O)(=O)c3ccccc3)c2)C1 [compound 28, hydrochloride]	dopamine D2 receptor (Homo sapiens, UniProt P14416)	Ki	> 1 µM
CCCN1CC(c2ccc3c(ccn3S(=O)(=O)c3ccc(OC(F)F)cc3)c2)C1 [compound 4, hydrochloride]	dopamine D2 receptor (Homo sapiens, UniProt P14416)	Ki	> 1 µM
O=S(=O)(c1cccc(OC(F)F)c1)n1ccc2cc(C3CNC3)ccc21 [compound 21, hydrochloride]	dopamine D2 receptor (Homo sapiens, UniProt P14416)	Ki	> 1 µM
O=S(=O)(c1ccccc1)n1ccc2cc(C3CNC3)ccc21 [compound 2, hydrochloride]	dopamine D2 receptor (Homo sapiens, UniProt P14416)	Ki	> 10 µM
O=S(=O)(c1cccc(C(F)(F)F)c1)n1ccc2cc(C3CNC3)ccc21 [compound 19, hydrochloride]	dopamine D2 receptor (Homo sapiens, UniProt P14416)	Ki	> 10 µM

Using the record for O=S(=O)(c1ccccc1OC(F)(F)F)n1ccc2cc(C3CNC3)ccc21 [compound 23] , report its Ki.
> 10 µM

Looking for the measured Ki of O=S(=O)(c1ccccc1)n1ccc2cc(C3CNC3)cnc21 [compound 46, formic acid salt] , can you help?
> 10 µM

Can you share its Ki? I mean this compound: CCCN1CC(c2ccc3c(ccn3S(=O)(=O)c3cccc(OC(F)(F)F)c3)c2)C1 [compound 26, hydrochloride]
> 1 µM

Ref: patent US8507469B2
